Entry source: PubChem BioAssay AID1159580

Experiment: chemical genetic growth profiling, strain panel (AID 1159580);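 note: tested at 20 µM; growth read once vehicle control cultures reached saturation at 30 °C; 1 = growth at the plate median or of vehicle wells; lower values mean less growth of the strain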
Settings: S. cerevisiae deletion strains, growth OD, locus YGL078C, strain dbp3, active compounds read low
The whole screen tested about 5,500 compounds, of which about 2,000 (36%) were called active. Inconclusive results (about 18%) are left out. Some of the results follow.
// normalized growth lookup, one value per entry
Respond using a number only.

compound	normalized growth
NC(=O)CN1CCCC1=O	1.02

Tell me its normalized growth given COc1cc2occc2c2oc(=O)ccc12 as the entry.
1.02

Tell me its normalized growth given COc1ccc(-c2oc3cc(O[C@H]4O[C@H](CO)[C@@H](O)[C@H](O)[C@H]4O)c(OC)c(O)c3c(=O)c2OC)cc1O as the entry.
0.975

Tell me its normalized growth given COc1ccc(-c2cc(=O)c3c(O)cc(O[C@@H]4O[C@H](CO[C@H]5O[C@H](C)[C@@H](O)[C@H](O)[C@@H]5O)[C@@H](O)[C@H](O)[C@H]4O)cc3o2)cc1O as the entry.
1

Tell me its normalized growth given CC12CCC3c4ccc(OCc5ccccc5)cc4CCC3C1C[C@@H](O)[C@@H]2O (some centres not stated) as the entry.
0.106

Tell me its normalized growth given CC(=O)[C@@]1(O)CCC2C3C[C@H](C)C4=CC(=O)C=CC4(C)[C@@]3(F)[C@@H](O)C[C@@]21C (some centres not stated) as the entry.
1

Tell me its normalized growth given C[C@]12CCC3c4ccc(O)cc4CCC3C1C[C@@H](O)[C@@H]2O (some centres not stated) as the entry.
0.995

Tell me its normalized growth given CC1O[C@@H](Oc2c(-c3ccc(O)c(O)c3)oc3cc(O)cc(O)c3c2=O)[C@H](O)[C@H](O)[C@H]1O (some centres not stated) as the entry.
0.992

Tell me its normalized growth given NC(=O)c1ncn([C@@H]2O[C@H](CO)[C@@H](O)[C@H]2O)n1 as the entry.
0.985

Tell me its normalized growth given CC12CCC3c4ccc(OC(=O)c5ccccc5)cc4CCC3C1CCC2O (configuration not stated) as the entry.
1

Tell me its normalized growth given CCCCC1C(=O)N(c2ccccc2)N(c2ccc(O)cc2)C1=O (configuration not stated) as the entry.
0.995

Tell me its normalized growth given O=c1c(O)c(-c2ccc(O)c(O)c2)oc2cc(O)cc(O)c12 as the entry.
0.999

Tell me its normalized growth given COc1ccc2c(c1)CCC1C2CCC2(C)C1C[C@@H](O)C2O (some centres not stated) as the entry.
0.997

Tell me its normalized growth given CN1C[C@H](C(=O)N[C@]2(C)O[C@@]3(O)[C@@H]4CCCN4C(=O)[C@H](Cc4ccccc4)N3C2=O)C[C@@H]2c3cccc4[nH]cc(c34)C[C@H]21 as the entry.
0.982

Tell me its normalized growth given COc1ccc2c(c1)CCC1C2CC[C@@]2(C)C1CC[C@@H]2O (some centres not stated) as the entry.
0.783
